# Tested on: SJSA-1 cells
# test-summary: Cell lysis by peptidomimetic macrocycles (LDH release)
# Format: cell-based
# experimental-setup: 6.25 uM, 1 h at 37C
Where a SMILES comes first, the peptide text is derived from it. Bridges are numbered along the chain shown (N, C = ends). [ ]: non-standard residue; d: D form. R8 = C=CCCCCCC[C@@](C)(N)C(=O)O; S5 = C=CCCC[C@](C)(N)C(=O)O
measurement-kind: 6.25 uM % Lysed cells (1 h LDH)
Please state the value followed by its unit.

{"columns": ["compound", "6.25 uM % Lysed cells (1 h LDH)"],
 "data": [
  ["CC(=O)N[C@@H](CC(C)C)C(=O)N[C@H](C(=O)N[C@@H](Cc1ccccc1)C(=O)N[C@]1(C)CCCCCCC=CCCC[C@@](C)(C(=O)N[C@@H](CO)C(=O)N[C@@H](C)C(=O)N[C@@H](C)C(N)=O)NC(=O)[C@H](CC(C)C)NC(=O)[C@H](C)NC(=O)[C@H](C(C)C)NC(=O)[C@H](Cc2c[nH]c3ccccc23)NC(=O)[C@H](Cc2ccc(O)cc2)NC(=O)[C@H](C)NC1=O)[C@@H](C)O [compound 196] (Ac-LTF[R8]AYWVAL[S5]SAA-NH2; staple 4-11)", "0%"],
  ["CC[C@H](C)[C@H](NC(=O)[C@H](C)NC(=O)[C@H](C)NC(=O)[C@]1(C)CCCC=CCCCCCC[C@@](C)(NC(=O)[C@H](Cc2ccccc2)NC(=O)[C@@H](NC(=O)[C@H](CC(C)C)NC(C)=O)[C@@H](C)O)C(=O)N[C@@H](CCC(=O)O)C(=O)N[C@@H](Cc2ccc(O)cc2)C(=O)N[C@@H](Cc2c[nH]c3ccccc23)C(=O)N[C@@H](C)C(=O)N[C@@H](CCC(N)=O)C(=O)N[C@@H](CC(C)C)C(=O)N1)C(=O)N[C@H](C)C(N)=O (single isomer, unassigned)", "2%"]
]}

GET /values?item= CC(=O)N[C@@H](CC(C)C)C(=O)N[C@H](C(=O)N[C@@H](Cc1ccccc1)C(=O)N[C@]1(C)CCCCCCC=CCCC[C@@](C)(C(=O)N[C@@H](CO)C(=O)N[C@@H](C)C(=O)N[C@@H](C)C(N)=O)NC(=O)[C@H](CC(C)C)NC(=O)[C@H](CCC(N)=O)NC(=O)[C@H](C)NC(=O)[C@H](Cc2c[nH]c3ccccc23)NC(=O)[C@H](Cc2ccc(C(=O)O)cc2)NC(=O)[C@H](C)NC1=O)[C@@H](C)O (single isomer, unassigned) &system= SJSA-1 cells returns 6.25 uM % Lysed cells (1 h LDH): 2%

GET /values?item= CC(=O)N[C@@H](CC(C)C)C(=O)N[C@H](C(=O)N[C@@H](Cc1ccccc1)C(=O)N[C@]1(C)CCCCCCC=CCCC[C@@](C)(C(=O)N[C@@H](C)C(=O)N[C@@H](C)C(=O)N[C@@H](Cc2c[nH]c3ccccc23)C(=O)N[C@H](C)C(N)=O)NC(=O)[C@H](CC(C)C)NC(=O)[C@H](CCC(N)=O)NC(=O)[C@H](C)NC(=O)[C@H](Cc2c[nH]c3ccccc23)NC(=O)[C@H](Cc2ccc(O)cc2)NC(=O)[C@H](C)NC1=O)[C@@H](C)O [compound 211] (Ac-LTF[R8]AYWAQL[S5]AAW[dA]-NH2; staple 4-11) &system= SJSA-1 cells returns 6.25 uM % Lysed cells (1 h LDH): 5%

====

# study-target: MDMX (Homo sapiens)
# test-summary: Competitive fluorescence polarization assay for MDMX
# Assay type: binding
# experimental-setup: competitive FP assay, read-out: Ki (MDMX)
Where a SMILES comes first, the peptide text is derived from it. Bridges are numbered along the chain shown (N, C = ends). [ ]: non-standard residue; d: D form. R8 = C=CCCCCCC[C@@](C)(N)C(=O)O; Cba = N[C@@H](CC1CCC1)C(=O)O; S5 = C=CCCC[C@](C)(N)C(=O)O; Nle = CCCC[C@H](N)C(=O)O
compounds and their reported Ki

{"columns": ["compound", "study-target", "Ki"],
 "data": [
  ["CC[C@H](C)[C@H](NC(=O)[C@H](C)NC(=O)[C@H](C)NC(=O)[C@]1(C)CCCC=CCCCCCC[C@@](C)(NC(=O)[C@H](Cc2ccccc2)NC(=O)[C@@H](NC(=O)[C@H](CCC(=O)O)NC(C)=O)[C@@H](C)O)C(=O)N[C@@H](CCC(=O)O)C(=O)N[C@@H](Cc2c[nH]cn2)C(=O)N[C@@H](Cc2c[nH]c3ccccc23)C(=O)N[C@@H](C)C(=O)N[C@@H](CCC(N)=O)C(=O)N[C@@H](CC(C)C)C(=O)N1)C(=O)N[C@H](C)C(N)=O (single isomer, unassigned)", "MDMX (Homo sapiens)", "0.01 to 0.1 µM"]
]}

Turning to the following compound.
GET /values?item= CCCC[C@H](NC(=O)[C@H](C)NC(=O)[C@H](C)NC(=O)[C@]1(C)CCCC=CCCCCCC[C@@](C)(NC(=O)[C@H](Cc2ccccc2)NC(=O)[C@@H](NC(=O)[C@H](CC(C)C)NC(C)=O)[C@@H](C)O)C(=O)N[C@@H](CCC(=O)O)C(=O)N[C@@H](Cc2ccc(O)cc2)C(=O)N[C@@H](Cc2c[nH]c3ccccc23)C(=O)N[C@@H](C)C(=O)N[C@@H](CCC(N)=O)C(=O)N[C@@H](CC2CCC2)C(=O)N1)C(=O)N[C@@H](C)C(N)=O [compound 238] (Ac-LTF[R8]EYWAQ[Cba][S5]AA[Nle]A-NH2; staple 4-11) &system= MDMX (Homo sapiens) returns Ki: 0.01 to 0.1 µM

====

# test-summary: Circular dichroism (CD) analysis of alpha-helicity
# Type: physicochemical
# experimental-setup: CD buffer with 50% TFE, 222 nm, 4° C.
Where a SMILES comes first, the peptide text is derived from it. Bridges are numbered along the chain shown (N, C = ends). [ ]: non-standard residue; d: D form. R8 = C=CCCCCCC[C@@](C)(N)C(=O)O; S5 = C=CCCC[C@](C)(N)C(=O)O
measurement-kind: Molar Ellipticity 50% TFE (222 in 50% TFE) (deg cm2 dmol-1)
// return numeric value only (unit: deg cm2 dmol-1, not printed)

{"columns": ["molecule", "value-observed"],
 "data": [
  ["CC(=O)N[C@@H](CC(C)C)C(=O)N[C@H](C(=O)N[C@@H](Cc1ccccc1)C(=O)N[C@]1(C)CCCCCCC=CCCC[C@@](C)(C(=O)N[C@@H](CO)C(=O)N[C@@H](C)C(=O)N[C@@H](Cc2ccccc2)C(N)=O)NC(=O)[C@H](CC(C)C)NC(=O)[C@H](CCC(N)=O)NC(=O)[C@H](C)NC(=O)[C@H](Cc2c[nH]c3ccccc23)NC(=O)[C@H](Cc2ccc(O)cc2)NC(=O)[C@H](C)NC1=O)[C@@H](C)O [compound 7] (Ac-LTF[R8]AYWAQL[S5]SAF-NH2; staple 4-11)", "−19921.4"]
]}

Turning to the following molecule.
// CCCC[C@H](NC(=O)[C@H](C)NC(=O)[C@H](C)NC(=O)[C@]1(C)CCC/C=C/CCCCCC[C@@](C)(NC(=O)[C@H](Cc2ccccc2)NC(=O)[C@@H](NC(=O)[C@H](CC(C)C)NC(C)=O)[C@@H](C)O)C(=O)N[C@@H](C)C(=O)N[C@@H](Cc2ccc(O)cc2)C(=O)N[C@@H](Cc2c[nH]c3ccccc23)C(=O)N[C@@H](C)C(=O)N[C@@H](CCC(N)=O)C(=O)N[C@@H](CC(C)C)C(=O)N1)C(=O)N[C@@H](C)C(N)=O : Molar Ellipticity 50% TFE (222 in 50% TFE) value = −21509.7

====

# study-target: MDMX (Homo sapiens, UniProt O15151)
# Sequence (O15151 1-125): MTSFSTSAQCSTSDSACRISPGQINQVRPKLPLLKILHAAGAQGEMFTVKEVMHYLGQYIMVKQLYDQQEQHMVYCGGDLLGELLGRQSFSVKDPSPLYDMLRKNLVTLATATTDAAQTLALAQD
# test-summary: Competitive fluorescence polarization assay for MDMX
# Type: binding
# experimental-setup: competitive FP assay, read-out: IC50 (MDMX)
measurement-kind: IC50

// CC(=O)N[C@@H](CC(C)C)C(=O)N[C@H](C(=O)N[C@@H](Cc1ccccc1)C(=O)N[C@]1(C)CCCCCCC=CCCC[C@@](C)(C(=O)N[C@@H](C)C(=O)N[C@@H](C)C(=O)N[C@H](C(=O)N[C@H](C)C(N)=O)C(C)C)NC(=O)[C@H](CC(C)C)NC(=O)[C@H](CCC(N)=O)NC(=O)[C@H](C)NC(=O)[C@H](Cc2c[nH]c3ccccc23)NC(=O)[C@H](Cc2ccc(O)cc2)NC(=O)[C@H](CCC(=O)O)NC1=O)[C@@H](C)O (single isomer, unassigned) [compound 221] : IC50 value = 0.01 to 0.1 µM

====

# System: SJSA-1 cells
# test-summary: Cell lysis by peptidomimetic macrocycles (LDH release)
# Format: cell-based
# experimental-setup: 6.25 uM, 1 h at 37C
Where a SMILES comes first, the peptide text is derived from it. Bridges are numbered along the chain shown (N, C = ends). [ ]: non-standard residue; d: D form. R8 = C=CCCCCCC[C@@](C)(N)C(=O)O; S5 = C=CCCC[C@](C)(N)C(=O)O
compounds and their reported 6.25 uM % Lysed cells (1 h LDH)
// return numeric value only (unit: %, not printed)

{"columns": ["compound", "6.25 uM % Lysed cells (1 h LDH) [%]"],
 "data": [
  ["CC(=O)N[C@@H](CC(C)C)C(=O)N[C@H](C(=O)N[C@@H](Cc1ccccc1)C(=O)N[C@]1(C)CCCCCCC=CCCC[C@@](C)(C(=O)N[C@@H](CO)C(=O)N[C@@H](C)C(=O)N[C@@H](Cc2ccccc2)C(N)=O)NC(=O)[C@H](CC(C)C)NC(=O)[C@H](CCC(N)=O)NC(=O)[C@H](C)NC(=O)[C@H](Cc2c[nH]c3ccccc23)NC(=O)[C@H](Cc2ccc(O)cc2)NC(=O)[C@H](C)NC1=O)[C@@H](C)O [compound 7] (Ac-LTF[R8]AYWAQL[S5]SAF-NH2; staple 4-11)", 0],
  ["CC(=O)N[C@@H](CC(C)C)C(=O)N[C@H](C(=O)N[C@@H](Cc1ccccc1)C(=O)N[C@]1(C)CCCCCCC=CCCC[C@@](C)(C(=O)N[C@@H](CO)C(=O)N[C@@H](C)C(=O)N[C@@H](C)C(N)=O)NC(=O)[C@H](CC(C)C)NC(=O)[C@H](C)NC(=O)[C@H](C)NC(=O)[C@H](Cc2c[nH]c3ccccc23)NC(=O)[C@H](Cc2c[nH]cn2)NC(=O)[C@H](C)NC1=O)[C@@H](C)O [compound 197] (Ac-LTF[R8]AHWAAL[S5]SAA-NH2; staple 4-11)", 1],
  ["CC(=O)N[C@@H](CC(C)C)C(=O)N[C@H](C(=O)N[C@@H](Cc1ccccc1)C(=O)N[C@]1(C)CCCCCCC=CCCC[C@@](C)(C(=O)N[C@@H](CO)C(=O)N[C@@H](C)C(=O)N[C@@H](CC(C)C)C(N)=O)NC(=O)[C@H](CC(C)C)NC(=O)[C@H](CCC(N)=O)NC(=O)[C@H](C)NC(=O)[C@H](Cc2c[nH]c3ccccc23)NC(=O)[C@H](Cc2ccc(O)cc2)NC(=O)[C@H](C)NC1=O)[C@@H](C)O [compound 4] (Ac-LTF[R8]AYWAQL[S5]SAL-NH2; staple 4-11)", "−2"],
  ["CCCC[C@H](NC(=O)[C@H](C)NC(=O)[C@H](C)NC(=O)[C@]1(C)CCCC=CCCCCCC[C@@](C)(NC(=O)[C@H](Cc2ccccc2)NC(=O)[C@@H](NC(=O)[C@H](CC(C)C)NC(C)=O)[C@@H](C)O)C(=O)N[C@@H](C)C(=O)N[C@@H](Cc2ccc(O)cc2)C(=O)N[C@@H](Cc2c[nH]c3ccccc23)C(=O)N[C@@H](Cc2cc(=O)oc3cc(OC)c(OC)cc23)C(=O)N[C@@H](CCC(N)=O)C(=O)N[C@@H](CC(C)C)C(=O)N1)C(=O)N[C@@H](C)C(N)=O", 4]
]}

Turning to the following compound.
// CC(=O)N[C@@H](CCC(=O)O)C(=O)N[C@H](C(=O)N[C@@H](Cc1ccccc1)C(=O)N[C@]1(C)CCCCCCC=CCCC[C@@](C)(C(=O)N[C@@H](CO)C(=O)N[C@H](C(=O)N[C@@H](CO)C(N)=O)C(C)C)NC(=O)[C@H](CC(C)C)NC(=O)[C@H](CCC(N)=O)NC(=O)[C@H](C)NC(=O)[C@H](Cc2c[nH]c3ccccc23)NC(=O)[C@H](Cc2ccc(O)cc2)NC(=O)[C@H](C(C)C)NC1=O)[C@@H](C)O [compound 130] (Ac-ETF[R8]VYWAQL[S5]SVS-NH2; staple 4-11) : 6.25 uM % Lysed cells (1 h LDH) value = 1
